Assignment: determine reported self-cleavage for the given variants.
B1: Hairpin Ribozyme (parent)
chain: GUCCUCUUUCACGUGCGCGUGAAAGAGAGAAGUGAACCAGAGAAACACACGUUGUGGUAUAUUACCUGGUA

- Variants of: B1
- Assay Details: self-cleavage, relative activity (ratio to wild type); higher = more cleavage; co-transcriptional

Write down self-cleavage measured for item GUCGUCUUUGACGUGCGCGUGAAAGAGAGAAGUGAACCAGAGAAACACACGUUGUGGUAUAUUACCUGGUA [C4G C10G]
0.114

Using known records, supply self-cleavage for GUCCUCUUCCACGUGCGCGUGACAGAGAGAAGUGAACCAGAGAAACACACGUUGUGGUAUAUUACCUGGUA [U9C A23C]
0.862

Give the value of self-cleavage reported for the following: GUCCUCUUUCACGUGCGCGUGAAAGAGAGAAGUGACCCAGAGAAACACACGUUGUGGUAUAUUACCUGUUA [A36C G69U]
0.227

Return the recorded self-cleavage value; entry: GUUCUCUUUCACGUGCGCGUGAAAGAGAGAAGUGAACCAGAGAAACACACGUUGUGGUAUAUUACGUGGUA [C3U C66G]
0.0901

Quickly give me recorded self-cleavage for GUCCUCUUUCACGUGCACGUGAAAGAGAGAAGUGAGCCAGAGAAACACACGUUGUGGUAUAUUACCUGGUA [G17A A36G]
1.17

Note down self-cleavage recorded for GUCAUCUUUCACGUGCGCGUGAAAGAGAGAAGUGCACCAGAGAAACACACGUUGUGGUAUAUUACCUGGUA [C4A A35C]
0.127

Return reported self-cleavage. Input variant: GUCCUCUUCCACGUGCGCGUGAAAGAGAGAAGUGAACCAGAGAAACACACGUAGUGGUAUAUUACCUGGUA [U9C U53A]
1.19

Using the record for GUCCUCUUUUACGUGCGCGUGAAAGAGAGAAGUGAACCAGAGAAACACACGUUGUGGUAUAUUACCUGGUA [C10U] , state its measured self-cleavage.
0.775

Query self-cleavage for GUCCUCUUUCACGUGCGCGUGAAAGAGAGAAAUGAACCAGCGAAACACACGUUGUGGUAUAUUACCUGGUA [G32A A41C]
0.145

Return the recorded self-cleavage value; entry: GUCCUCUUUCACGUGCGCGUGAAAGAGAGAAGUGAACCAGAGAAACACACGUUGUGGUAUAUGACCUCGUA [U63G G68C]
0.169

Specify reported self-cleavage for the variant shown: GUCCUCUUUCAAGUGCGCGUGAAAGAGACAAGUGAACCAGAGAAACACACGUUGUGGUAUAUUACCUGGUA [C12A G29C]
0.0897

Give self-cleavage for the following variant: GUCCUCCUUCACGUGCGCGUGAAAGAGAGAAGUGAACCAGAGAAACACACGUCGUGGUAUAUUACCUGGUA [U7C U53C]
0.677

Please report the measured self-cleavage for GUCCUCUUUCACGUGCGCGUGAAAGAGAGAAGUGAACCAGAGAAACACACGUCGUGGUAUAGUACCUGGUA [U53C U62G]
0.122

Specify reported self-cleavage for the variant shown: GUCCUCUUUCACGUGCGCGUGAAAGAGAGUAGUGAACCAGAUAAACACACGUUGUGGUAUAUUACCUGGUA [A30U G42U]
0.119

Specify reported self-cleavage for the variant shown: GUCCUCUUACACGUGCGCGUGAAAGAGAGAAGUGAACCAGAGAAACACACGUAGUGGUAUAUUACCUGGUA [U9A U53A]
0.768

Return self-cleavage (reported value) for this variant: GUCCUCUUUCACGUGCGCGUGAAAGAGAGAAGUGAACCAGAGAACCCCACGUUGUGGUAUAUUACCUGGUA [A45C A47C]
0.198

Provide measured self-cleavage value, entry: GUCCUCUUUCACGUGCGCGUGAAAGAGAGAAGUGAACCAGAGAAACCCACGUUGUGGUAUAUUACCCGGUA [A47C U67C]
0.148

Return self-cleavage for the following variant: GUCCUCUUUCACGUGCGCGUGAAAGAGAGAAGUGACCCAGAGAAACACACGUUGUGGUAUAUUACCUGGGA [A36C U70G]
0.671

Report self-cleavage for GUCCUCUUUCACGUGCGCGUGAAACAGAGAAGUGCACCAGAGAAACACACGUUGUGGUAUAUUACCUGGUA [G25C A35C]
0.474

Report measured self-cleavage; entry is GUCCUCUUUCACGUGCGCGGGAAAGAGAGAAGUGAACCAGAGAAACACACGUUGUGGAAUAUUACCUGGUA [U20G U58A]
0.501

Assign self-cleavage to the following record: GUCCUCUUUCACGUGCGCGUGAAAGAGAGAAAUGAACCAGAGAAACAGACGUUGUGGUAUAUUACCUGGUA [G32A C48G]
0.117

For GUCCUCUUUCACGUGCGCGUGAAAGGGAGAAGUGAACCAGAGAAACACACGUUGUGGUAUAUUACCUGAUA [A26G G69A] , write its self-cleavage.
0.451

Item GUCCUCUUGCACGUGCGCGUGAAAGAGAGUAGUGAACCAGAGAAACACACGUUGUGGUAUAUUACCUGGUA [U9G A30U] : provide self-cleavage
0.0546

Check the records and state self-cleavage for GUCAUCUUUCACGUGCGCGUGAAAGAUAGAAGUGAACCAGAGAAACACACGUUGUGGUAUAUUACCUGGUA [C4A G27U]
0.557

Tell me measured self-cleavage for GUCCUCUUUCACGUGCGCGUGAAAGAGAGAAGUGAACCAGAGAAUCACACGUUGUGGUAUAUUACGUGGUA [A45U C66G] please.
0.236

Look up and state reported self-cleavage for GUCCUCUUUCACGUGCGCGUGCAAGAGAGAACUGAACCAGAGAAACACACGUUGUGGUAUAUUACCUGGUA [A22C G32C]
0.106

Report measured self-cleavage; entry is GGCCUCUUUCACGUGCGCGUGAAAGAGAGAAGUGAACCAGAGAAACACACGUUGUGGUAUAUUACAUGGUA [U2G C66A]
0.147

Give self-cleavage for the following variant: GUCGUCUUUCACGCGCGCGUGAAAGAGAGAAGUGAACCAGAGAAACACACGUUGUGGUAUAUUACCUGGUA [C4G U14C]
0.125

For the variant GUCCUCUUUCACGUGCGCGUGAAAGAGAGAAAUGAAUCAGAGAAACACACGUUGUGGUAUAUUACCUGGUA [G32A C37U] , give its measured self-cleavage value.
0.129

Provide self-cleavage value for the following variant: GUUCUCUUUCACGUGCGCGUGAAAGAGAGAAUUGAACCAGAGAAACACACGUUGUGGUAUAUUACCUGGUA [C3U G32U]
0.102

Supply measured self-cleavage of GUCCUCUUUCACGUGCGCGUGAAAGAGGGAAGUGAACCAGAGAAACACACGUUGUGGUAUACUACCUGGUA [A28G U62C] in your reply.
0.302

Supply recorded self-cleavage for GUCCUCUUUCACGUGCGCGUGAAAGAGAGAAGUGAACUAGAGAAACACACGUUGUGGUAUAUUACCUGGUC [C38U A71C] here.
0.889

Give the reported self-cleavage for this variant. GUCCUCUUUCACGUGCGCGUGAAAGAGAGAAGUGAACCAGAGAAACACACGUUGUGGUACAUUACCUGCUA [U60C G69C]
0.326

Given the variant GUCCUCUUUCACGUGCGCGUGAAAGACAGAAGUGAACCAGAGGAACACACGUUGUGGUAUAUUACCUGGUA [G27C A43G] , write its reported self-cleavage.
0.107

Please look at this variant and report its self-cleavage: GUCCUCCUUCACGUGCGCGUGAAAGAGAGAAGUGAACCAGAGAAACACACGUUGUGGUAUAUUACCAGGUA [U7C U67A]
0.167

For the variant GUGCUCUUUCACGUGCGCGUGAAAGAGAGAAGUGAACCAGAGAGACACACGUUGUGGUAUAUUACCUGGUA [C3G A44G] , report self-cleavage.
0.15

Please give the documented self-cleavage of GUCCUUUUUCACGUGCACGUGAAAGAGAGAAGUGAACCAGAGAAACACACGUUGUGGUAUAUUACCUGGUA [C6U G17A]
0.917

Retrieve self-cleavage measured for GUCCUCUAUCACGUGCGCGUGAAAGGGAGAAGUGAACCAGAGAAACACACGUUGUGGUAUAUUACCUGGUA [U8A A26G] and print it.
0.606

Dear colleague, please send me the reported self-cleavage for GUCCUCUUUCACGUGCGCGUGAAAGAGAGAAGUGAACCACAGAAACACACUUUGUGGUAUAUUACCUGGUA [G40C G51U] when you can.
0.131

For the variant GUCCUCUUUCACGUGCGCGUGAAAGAGAGAAGUGAACCGGAGAAGCACACGUUGUGGUAUAUUACCUGGUA [A39G A45G] , give its measured self-cleavage value.
0.0935

Output self-cleavage of AUCCUCUUUCACGUGCUCGUGAAAGAGAGAAGUGAACCAGAGAAACACACGUUGUGGUAUAUUACCUGGUA [G1A G17U]
0.127

Write down self-cleavage measured for item GUCCUCUUUCACGUGCGCGUGAAAGAGAGAAGUGAAUCAGAGAAACACACGUUGUGGUAUAUUACCUGAUA [C37U G69A]
0.46

Supply recorded self-cleavage for GUCCUCUUUCACGUGCGCGUGAAAGUGAGAAGUGAACCAGAGGAACACACGUUGUGGUAUAUUACCUGGUA [A26U A43G] here.
0.121

Answer with the recorded self-cleavage for the variant listed here: GUCCUGUUUCACGUACGCGUGAAAGAGAGAAGUGAACCAGAGAAACACACGUUGUGGUAUAUUACCUGGUA [C6G G15A]
0.475

Give reported self-cleavage value for GUCCUCUUUCACGUGCGCGUGAUAGAGAGAAGUGAACCAGAGGAACACACGUUGUGGUAUAUUACCUGGUA [A23U A43G]
0.204

Check the records and state self-cleavage for GUCCUCUUUCACAUGCGCGUGAAAGAGAGAAGUGAACCAGAAAAACACACGUUGUGGUAUAUUACCUGGUA [G13A G42A]
0.194

Numbers sourced from the RNAGym collection of RNA variant scans (doi:10.7554/elife.80360).
